conditions: in n-propanol, 313.15 K

# query_smiles, solubility (mole fraction)
measured = [
    ("O=C(O)c1cc(O)c(O)c(O)c1", 0.0474),
]

----------
conditions: in water, 303.15 K

# query_smiles, solubility (mole fraction)
measured = [
    ("O=C(O)c1cc(O)c(O)c(O)c1", 0.00204),
]

----------
conditions: in isopropanol, 303.15 K
property_name: solubility (mole fraction)

# query_smiles, measured_result
rows = [
    ("O=C(O)c1cc(O)c(O)c(O)c1", 0.0362),
]

----------
conditions: in water, 293.15 K
property_name: solubility (mole fraction)

# query_smiles, property_name, measured_result
data = [
    ("O=C(O)c1cc(O)c(O)c(O)c1", "solubility (mole fraction)", 0.00127),
]
